Assay remarks: Cytotoxicity against Macaca mulatta (Rhesus monkey) FRhK4 cells
Format: cell-based
Test conditions: FRhK-4
Assay readout: IC50 (nM)
Response body: numeric value in nM, unit text excluded.

Field request: IC50 | item: O=C1NC(c2c[nH]c3ccc(O)cc23)=C/C1=C1\C(=O)Nc2ccccc21 2200

====

Tested on: Leishmania amazonensis
Assay remarks: Antiparasitic activity against Leishmania amazonensis MHOM/BR /77/LTB0016 after 24 hr
Format: functional, organism-based
Test conditions: MHOM/BR /77/LTB0016, 24 h
Assay readout: pEC50
Scale note: pEC50 = -log10(concentration in M).

Please look up its pEC50: O=C1NC(c2c[nH]c3ccc(O)cc23)=C/C1=C1\C(=O)Nc2ccccc21 [VIOLACEIN] 5.37

Another: N=C(N)c1ccc(OCCCCCOc2ccc(C(=N)N)cc2)cc1 [PENTAMIDINE] 6.34
